Provide the recorded pKd for the entries that follow.
Target: T1, GFP-9S library array, motif 4 ND N98A;D124L (synthetic construct, N98A;D124L)
T1 chain: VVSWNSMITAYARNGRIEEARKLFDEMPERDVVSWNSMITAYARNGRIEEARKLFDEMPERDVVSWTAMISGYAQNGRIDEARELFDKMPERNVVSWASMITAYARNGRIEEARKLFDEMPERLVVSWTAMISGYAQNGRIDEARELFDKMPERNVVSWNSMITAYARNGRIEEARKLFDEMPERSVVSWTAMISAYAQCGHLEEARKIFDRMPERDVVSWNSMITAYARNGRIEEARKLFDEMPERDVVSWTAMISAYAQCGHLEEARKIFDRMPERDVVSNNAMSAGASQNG
Assay: high-throughput RNA pulldown from lysate on Ni-NTA beads; HRP: 50 mM Tris pH 8, 150 mM NaCl, 1 mM beta-mercaptoethanol, 50 ug/ml BSA, 3 ug/ml yeast RNA, 0.5% heparin; ITC and FP: Tris pH 8, 200 mM KCl, 5% glycerol; MST: 50 mM Tris pH 8, 200 mM NaCl, 1 mM DTT, BSA, heparin, 0.05% Tween 20
Settings: tags: N-terminal His-eGFP; label: 5' Cy5
Numbers only, as −log10 of the molar value.

AUUACACGUGA (ssRNA) [Cy5-rpoA] | 6.89

Now examine the next entry.
Problem: // query pKd value for entry AUUAGACGUGA (ssRNA) [Cy5-rpoA-G]
Solution: 6.87
